- Test system: T1, human MSLN-R3-3 polypeptide (human)
- T1 construct: Part of region R3 of human MSLN; also called hMSLN-R3-3; human MSLN-R3-3 protein
- Assay remarks: ELISA, coated antigen, antibody 0.001 nM
Endpoint name: OD450
Hey, just send me the number, nothing else.

Ask: Query: OD450; subject: S009-F6-62.5 chimeric antibody (antibody, human IgG1, kappa, V domains shown, Human-murine chimeric antibody, human IgG1/kappa constant regions) VH: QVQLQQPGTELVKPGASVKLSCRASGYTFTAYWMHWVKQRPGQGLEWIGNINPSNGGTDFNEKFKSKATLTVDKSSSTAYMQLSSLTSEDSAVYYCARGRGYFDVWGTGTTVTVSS VL: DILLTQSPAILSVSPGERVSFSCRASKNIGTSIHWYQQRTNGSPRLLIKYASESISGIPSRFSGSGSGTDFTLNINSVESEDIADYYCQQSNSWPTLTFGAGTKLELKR
Result: 0.04
